# target.of.assay: Caspase-1 (Homo sapiens)
# experiment.notes: Inhibition of human recombinant caspase-1 using AC-WEHD-AMC as substrate at Km after 20 mins by fluorescence assay
# assay.conditions: read-out: pIC50 (converted)
measure.name: IC50 (µM)

[P] CC(C)[C@H](NC(=O)c1ccc2ccccc2c1)C(=O)N1C2CCC(O)(CC2)C1C(=O)N[C@H]1CC(=O)OC1O (stereo partly drawn)
[Q] O=C1C[C@H](NC(=O)[C@@H]2C[C@@H]3CN2C(=O)[C@@H](NC(=O)c2ccc4ccccc4c2)CCCCO3)C(O)O1 (stereo partly drawn)
Consider P and Q . Which of these has its IC50 at a higher number? Reply with the label of the item you choose.
Q
(Q: 5.01 µM, P: 0.0158 µM)

###

# experiment.notes: Intrinsic clearance in NHEK cells assessed per 10^6 cells
# Format: ADME, cell-based
# assay.conditions: human
measure.name: CL (uL/min/10^6 cells)

[
  {
    "compound": "Cc1cc(Nc2ccc3ccccc3c2)ccc1C(=O)Nc1cn(C(C)C)c(=O)n(CC(=O)N[C@H]2CC(=O)OC2O)c1=O (some centres undefined)",
    "measure.name": "CL",
    "numeric.readout": 3.9
  }
]

[I] CCC(C(=O)N[C@H]1CC(=O)OC1O)n1c(=O)c(NC(=O)c2ncc(Nc3ccc4ccccc4c3)cc2C)cn(C(C)C)c1=O (some centres undefined)
[II] CC(C)n1cc(NC(=O)c2ccc(Nc3ccc4ccccc4c3)cc2)c(=O)n(C2(C(=O)N[C@H]3CC(=O)OC3O)CC2)c1=O (some centres undefined)
Lowest CL? choose I or II Indicate which entry you chose by stating its label.
II

###

# experiment.notes: Solubility of the compound in PG/EtOH solution
# Format: physicochemical
measure.name: solubility (mM)

Example entries begin here.
[
  {
    "molecule": "Cc1cc(Nc2ccc3ccccc3c2)ccc1C(=O)Nc1cn(C(C)C)c(=O)n(CC(=O)N[C@H]2CC(=O)OC2O)c1=O (stereo partly drawn)",
    "numeric.readout": 51
  },
  {
    "molecule": "CC(C)n1cc(NC(=O)c2ccc(Nc3cnc4ccccc4n3)cc2)c(=O)n(CC(=O)N[C@H]2CC(=O)OC2O)c1=O (stereo partly drawn)",
    "numeric.readout": 5.2
  },
  {
    "molecule": "CC(C)n1cc(NC(=O)c2ccc(Nc3ccc4ccccc4c3)cc2)c(=O)n(C2(C(=O)N[C@H]3CC(=O)OC3O)CC2)c1=O (stereo partly drawn)",
    "numeric.readout": 31
  },
  {
    "molecule": "CC(C)n1cc(NC(=O)c2ccc(Nc3cnc4ccccc4n3)cc2)c(=O)n(C2(C(=O)N[C@H]3CC(=O)OC3O)CC2)c1=O (stereo partly drawn)",
    "numeric.readout": 25
  },
  {
    "molecule": "CC(C(=O)N[C@H]1CC(=O)OC1O)n1c(=O)c(NC(=O)c2ccc(Nc3cnc4ccccc4n3)cc2)cn(C)c1=O (stereo partly drawn)",
    "numeric.readout": 0.89
  }
]

[I] CC(C)n1cc(NC(=O)c2ccc(Nc3cnc4ccccc4n3)cc2)c(=O)n(C(C)C(=O)N[C@H]2CC(=O)OC2O)c1=O (stereo partly drawn)
[II] CC(C)n1cc(NC(=O)c2ccc(Nc3ccc4ccccc4c3)cc2)c(=O)n(CC(=O)N[C@H]2CC(=O)OC2O)c1=O (stereo partly drawn)
Please compare: I and II . Report which one has the smaller solubility value. // output: label of the selected item
I

###

# experiment.notes: Chemical stability in 96% ethanol assessed as parent compound recovery at 23 degC after 3 months
# Type: physicochemical
# assay.conditions: read-out: Drug recovery
measure.name: remaining at 2191.5 h (%)

[
  {
    "compound": "Cc1cc(Nc2ccc3ccccc3c2)ccc1C(=O)Nc1cn(C(C)C)c(=O)n(CC(=O)N[C@H]2CC(=O)OC2O)c1=O (some centres not stated)",
    "remaining at 2191.5 h [%]": 85
  },
  {
    "compound": "CCC(C(=O)N[C@H]1CC(=O)OC1O)n1c(=O)c(NC(=O)c2ncc(Nc3ccc4ccccc4c3)cc2C)cn(C(C)C)c1=O (some centres not stated)",
    "remaining at 2191.5 h [%]": 100
  },
  {
    "compound": "CCC(C(=O)N[C@H]1CC(=O)OC1O)n1c(=O)c(NC(=O)c2ccc(Nc3ccc4ccccc4c3)cc2C)cn(C(C)C)c1=O (some centres not stated)",
    "remaining at 2191.5 h [%]": 72
  },
  {
    "compound": "CC(C)n1cc(NC(=O)c2ccc(Nc3ccc4ccccc4c3)cc2)c(=O)n(C2(C(=O)N[C@H]3CC(=O)OC3O)CC2)c1=O (some centres not stated)",
    "remaining at 2191.5 h [%]": 99
  },
  {
    "compound": "CC(C)n1cc(NC(=O)c2ccc(Nc3ccc4ccccc4c3)cc2)c(=O)n(CC(=O)N[C@H]2CC(=O)OC2O)c1=O (some centres not stated)",
    "remaining at 2191.5 h [%]": 82
  },
  {
    "compound": "Cc1cc(Nc2ccc3ccccc3c2)ccc1C(=O)Nc1cn(C(C)C)c(=O)n(C2(C(=O)N[C@H]3CC(=O)OC3O)CC2)c1=O (some centres not stated)",
    "remaining at 2191.5 h [%]": 100
  },
  {
    "compound": "CCC(C(=O)N[C@H]1CC(=O)OC(O)C1)n1c(=O)c(NC(=O)c2ccc(Nc3ccc4ccccc4c3)cc2C)cn(C(C)C)c1=O (some centres not stated)",
    "remaining at 2191.5 h [%]": 84
  }
]

###

# experiment.notes: Cmax in mouse dermis at 0.1 umol/cm'2 administered topically
# Type: ADME, tissue-based
# assay.conditions: topical or ocular
measure.name: Cmax (µM)
Entry rule: numbers only, all in µM.

Provide measured Cmax value, entry: Cc1cc(Nc2ccc3ccccc3c2)ccc1C(=O)Nc1cn(C(C)C)c(=O)n(C2(C(=O)N[C@H]3CC(=O)OC3O)CC2)c1=O (stereo partly specified)
4.2

###

# target.of.assay: Caspase-7 (Homo sapiens)
# Sequence (P55210 whole entry): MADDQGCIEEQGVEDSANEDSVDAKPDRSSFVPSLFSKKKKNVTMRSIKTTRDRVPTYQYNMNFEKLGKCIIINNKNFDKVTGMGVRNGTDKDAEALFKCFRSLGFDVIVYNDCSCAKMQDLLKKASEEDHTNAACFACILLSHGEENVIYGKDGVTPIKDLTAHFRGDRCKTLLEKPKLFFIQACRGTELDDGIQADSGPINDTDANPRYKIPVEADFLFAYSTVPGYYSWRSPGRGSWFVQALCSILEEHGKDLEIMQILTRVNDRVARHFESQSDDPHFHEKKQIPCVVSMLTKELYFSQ
# experiment.notes: Inhibition of human recombinant caspase-7 using Ac-DEVD-AMC as substrate at Km after 20 mins by fluorescence assay
pIC50: −log10 of the molar value.
measure.name: pIC50

Give the value of pIC50 reported for the following: Cc1cc(Nc2ccc3ccccc3c2)ccc1C(=O)Nc1cn(C(C)C)c(=O)n(C2(C(=O)N[C@H]3CC(=O)OC3O)CC2)c1=O (stereo partly specified)
< 5.00

###

# target.of.assay: Caspase-3 (Homo sapiens)
# Sequence (P42574 29-175 limits assumed): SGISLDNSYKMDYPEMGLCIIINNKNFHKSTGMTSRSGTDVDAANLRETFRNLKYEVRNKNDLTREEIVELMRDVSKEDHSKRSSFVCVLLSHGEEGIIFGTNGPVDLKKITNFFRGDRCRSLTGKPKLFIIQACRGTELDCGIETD
# Sequence (P42574 176-277 limits assumed): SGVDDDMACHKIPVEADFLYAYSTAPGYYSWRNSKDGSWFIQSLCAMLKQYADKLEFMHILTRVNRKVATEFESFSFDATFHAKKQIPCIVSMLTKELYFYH
# experiment.notes: Inhibition of human recombinant caspase-3 using Ac-DEVD-AMC as substrate at Km after 20 mins by fluorescence assay
pIC50: −log10 of the molar value.
measure.name: pIC50

Please supply the value of reported pIC50 for the item Cc1cc(Nc2ccc3ccccc3c2)ccc1C(=O)Nc1cn(C(C)C)c(=O)n(C2(C(=O)N[C@H]3CC(=O)OC3O)CC2)c1=O (stereo partly specified)
< 5.00

###

# target.of.assay: Caspase-1 (Homo sapiens, UniProt P29466)
# Sequence (P29466 120-297 limits assumed): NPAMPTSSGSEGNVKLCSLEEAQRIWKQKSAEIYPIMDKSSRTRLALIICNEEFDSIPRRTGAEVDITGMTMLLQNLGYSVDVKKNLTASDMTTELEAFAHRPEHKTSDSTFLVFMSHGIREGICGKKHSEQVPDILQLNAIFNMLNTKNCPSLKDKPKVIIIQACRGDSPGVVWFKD
# Sequence (P29466 317-404 limits assumed): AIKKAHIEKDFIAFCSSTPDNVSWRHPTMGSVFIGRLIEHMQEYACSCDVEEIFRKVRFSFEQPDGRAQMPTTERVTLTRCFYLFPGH
# experiment.notes: Inhibition of human recombinant caspase-1 using AC-WEHD-AMC as substrate at 20 times Km after 20 mins by fluorescence assay
Readings of IC50 for the listed compounds

Here's what some known entries look like.
[
  {
    "compound": "O=C1C[C@H](NC(=O)[C@@H]2C[C@@H]3CN2C(=O)[C@@H](NC(=O)c2ccc4ccccc4c2)CCCCO3)C(O)O1 (stereo partly specified)",
    "IC50": "> 10 µM"
  },
  {
    "compound": "CC(C(=O)N[C@H]1CC(=O)OC1O)n1c(=O)c(NC(=O)c2ccc(Nc3cnc4ccccc4n3)cc2)cn(C)c1=O (stereo partly specified)",
    "IC50": "0.0316 µM"
  },
  {
    "compound": "CC(C)N(NC(=O)c1ccc2ccccc2c1)C(=O)C1CNC[C@H]1C(=O)N[C@H]1CC(=O)OC1O (stereo partly specified)",
    "IC50": "1.58 to 10 µM"
  },
  {
    "compound": "CC(C(=O)N[C@H]1CC(=O)OC1O)n1c(=O)c(NC(=O)c2ccc3ccccc3c2)cn(C)c1=O (stereo partly specified)",
    "IC50": "7.94 µM"
  },
  {
    "compound": "C[C@@H](C(=O)N[C@H]1CC(=O)OC1O)N1C(=O)CCC(NC(=O)c2ccc3ccccc3c2)C1=O (stereo partly specified)",
    "IC50": "1.26 to 10 µM"
  }
]

Please give the documented IC50 of CC(C)N(NC(=O)c1ccc2ccccc2c1)C(=O)C1CCCC[C@H]1C(=O)N[C@H]1CC(=O)OC1O (stereo partly specified)
1.58 to 10 µM

Identify measured IC50 corresponding to CC(C)[C@H](NC(=O)c1ccc2ccccc2c1)C(=O)N1C2CCC(O)(CC2)C1C(=O)N[C@H]1CC(=O)OC1O (stereo partly specified)
0.1 µM

Cited source: ChEMBL document CHEMBL4177758
